- EXPERIMENT: Aqueous kinetic solubility in PBS pH 7.4
- Format: physicochemical
- EXPERIMENTAL_CONDITIONS: aqueous kinetic solubility from 10 mM DMSO solution in PBS pH 7.4; target concentration 250 μM (final DMSO 2.5%)
METRIC: solubility at 24 h

Lab book: solubility at 24 h of CCCCNc1cc(C(=O)O)cc(S(N)(=O)=O)c1Oc1ccccc1 [bumetanide, reference compound] noted as > 250 µM

###

- MEASURED_TARGET: NKCC1 (Mus musculus, UniProt P55012)
- Construct: primary neuronal cultures of dissociated hippocampal neurons were prepared from E18 C57BL/6J mice; endogenous in cells; host or cells: primary hippocampal neurons from E18 C57BL/6J mice, 3 DIV
- Sequence (P55012 whole entry): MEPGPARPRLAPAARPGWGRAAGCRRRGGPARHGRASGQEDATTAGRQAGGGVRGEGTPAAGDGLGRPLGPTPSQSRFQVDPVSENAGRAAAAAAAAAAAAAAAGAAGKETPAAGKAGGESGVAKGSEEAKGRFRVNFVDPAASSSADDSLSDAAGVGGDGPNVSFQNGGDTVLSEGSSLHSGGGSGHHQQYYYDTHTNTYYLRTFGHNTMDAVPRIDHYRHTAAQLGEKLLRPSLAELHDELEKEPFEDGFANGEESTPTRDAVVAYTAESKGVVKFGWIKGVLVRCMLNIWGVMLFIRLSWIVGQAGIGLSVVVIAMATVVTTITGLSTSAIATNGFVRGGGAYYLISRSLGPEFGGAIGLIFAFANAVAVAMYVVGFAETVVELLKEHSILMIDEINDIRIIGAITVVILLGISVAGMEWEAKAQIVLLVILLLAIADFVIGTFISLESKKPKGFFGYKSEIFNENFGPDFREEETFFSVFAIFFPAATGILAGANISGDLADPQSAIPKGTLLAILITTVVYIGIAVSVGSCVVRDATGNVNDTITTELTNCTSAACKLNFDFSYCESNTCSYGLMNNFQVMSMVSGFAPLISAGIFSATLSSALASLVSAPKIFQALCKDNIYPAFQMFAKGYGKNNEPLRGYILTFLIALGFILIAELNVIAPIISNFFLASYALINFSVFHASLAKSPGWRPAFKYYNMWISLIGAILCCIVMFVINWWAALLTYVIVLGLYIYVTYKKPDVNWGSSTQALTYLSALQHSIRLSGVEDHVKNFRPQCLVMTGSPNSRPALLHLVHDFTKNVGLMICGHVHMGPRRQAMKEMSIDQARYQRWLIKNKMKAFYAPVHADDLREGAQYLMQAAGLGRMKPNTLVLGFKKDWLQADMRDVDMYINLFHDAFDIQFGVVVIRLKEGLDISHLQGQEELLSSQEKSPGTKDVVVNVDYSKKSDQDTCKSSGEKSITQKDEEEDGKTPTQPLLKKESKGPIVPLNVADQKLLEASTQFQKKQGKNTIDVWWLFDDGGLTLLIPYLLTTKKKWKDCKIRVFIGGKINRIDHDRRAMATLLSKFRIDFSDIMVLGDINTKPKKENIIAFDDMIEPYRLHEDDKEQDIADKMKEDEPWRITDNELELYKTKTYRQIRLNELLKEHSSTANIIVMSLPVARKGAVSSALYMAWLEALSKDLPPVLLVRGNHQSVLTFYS
- EXPERIMENT: Ca2+ influx assay in immature primary neuronal cultures (indirect measure of NKCC1 inhibition)
- Assay type: cell-based
- EXPERIMENTAL_CONDITIONS: 100 μM; cultured neurons, 3 DIV
Give measured inhibition at 100 µM for each item. Keep answers brief.
Answers are plain numbers, in %.

Quick one: give me inhibition at 100 µM for each item below, same order please.
1. O=C(O)c1ccc(NCCCCCCCC(F)(F)F)c(S(=O)(=O)N2CCOCC2)c1
2. CCOc1cc(NCCCCCCCC(F)(F)F)c(S(=O)(=O)N(C)C)cc1C(=O)O
3. CN(C)S(=O)(=O)c1cc(C(=O)O)ccc1NCCCCCCCC(F)(F)F

1: 67.8; 2: 46.6; 3: 92.8

Items follow; give inhibition at 100 µM for each.
1. O=C(O)c1ccc(NCCCCCCCC(F)(F)F)c(S(=O)(=O)NC2CCOCC2)c1
2. CN(C)S(=O)(=O)c1cc(C(=O)O)c(O)cc1NCCCCCCCC(F)(F)F
3. CN(C)S(=O)(=O)c1cc(C(=O)O)c(Cl)cc1NCCCCCCCC(F)(F)F
4. COc1cc(NCCCCCCCC(F)(F)F)c(S(=O)(=O)N(C)C)cc1C(=O)O

1. 36.2
2. 51.8
3. 59.6
4. 45.7

Entry source: paper PMC8311653
